Target: Cannabinoid receptor 2 (Homo sapiens, UniProt P34972)
Sequence (P34972 whole entry): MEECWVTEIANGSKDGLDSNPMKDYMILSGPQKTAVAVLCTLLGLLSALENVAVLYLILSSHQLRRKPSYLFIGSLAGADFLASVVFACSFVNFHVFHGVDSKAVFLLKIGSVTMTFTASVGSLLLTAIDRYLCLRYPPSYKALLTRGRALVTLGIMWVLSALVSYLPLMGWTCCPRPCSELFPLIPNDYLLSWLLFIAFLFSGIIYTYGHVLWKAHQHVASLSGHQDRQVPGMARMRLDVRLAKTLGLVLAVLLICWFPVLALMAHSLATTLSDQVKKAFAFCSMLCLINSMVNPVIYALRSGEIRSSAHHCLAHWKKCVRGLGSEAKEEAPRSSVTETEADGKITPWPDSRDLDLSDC
Experiment: Binding affinity against G protein coupled human Cannabinoid receptor 2 using [3H]CP-55940 in HEK293 EBNA transfected cells
pKi: −log10 of the molar value.
Field: pKi. Provide a value for each of the compounds that follow.

What value of pKi has been reported for the following compound? `CCCCC/C=C\C/C=C\C/C=C\C/C=C\CCCC(=O)OCCc1cccs1`
< 5.30

I have this compound here, `CCCCC/C=C\C/C=C\C/C=C\C/C=C\CCCC(=O)O[C@H](C)c1ccco1` , and I need its recorded pKi.
< 5.30

Name the recorded pKi for `CCCCC/C=C\C/C=C\C/C=C\C/C=C\CCCC(=O)NCCc1ccsc1` .
< 6.00

What value of measured pKi is listed for CCCCC/C=C\C/C=C\C/C=C\C/C=C\CCCC(=O)NC(C)Cc1cccs1 (stereo unspecified) ?
< 6.00

Sample CCCCC/C=C\C/C=C\C/C=C\C/C=C\CCCC(=O)NCC1CCCO1 (stereo unspecified) — what was its pKi?
< 5.30

Entry CCCCC/C=C\C/C=C\C/C=C\C/C=C\CCCC(=O)OC(C)c1ccco1 (stereo unspecified) has what pKi?
< 6.00

Return reported pKi; argument: CCCCC/C=C\C/C=C\C/C=C\C/C=C\CCCC(=O)OCC1CCOC1 (stereo unspecified)
< 5.00

Value lookup for pKi; key = `CCCCC/C=C\C/C=C\C/C=C\C/C=C\CCCC(=O)OCc1ccoc1`
< 5.30

Data request, read-out pKi, for `CCCCC/C=C\C/C=C\C/C=C\C/C=C\CCCC(=O)OCc1cccs1`
< 5.30

Which pKi value is on record for `CCCCC/C=C\C/C=C\C/C=C\C/C=C\CCCC(=O)N(Cc1cccs1)Cc1cccs1` ?
< 6.00

If you can, please state the reported pKi value of `CCCCC/C=C\C/C=C\C/C=C\C/C=C\CCCC(=O)NCc1ccco1` .
< 5.30

Entry under review: `CCCCC/C=C\C/C=C\C/C=C\C/C=C\CCCC(=O)NCCc1cccs1` . Reported pKi?
< 6.00

Quick check: pKi of CCCCC/C=C\C/C=C\C/C=C\C/C=C\CCCC(=O)NC(C)Cc1ccsc1 (stereo unspecified) ?
< 6.00

Report pKi for `CCCCC/C=C\C/C=C\C/C=C\C/C=C\CCCC(=O)OCc1ccsc1` please.
< 5.30

I'd like to know its pKi. The compound in question is `CCCCC/C=C\C/C=C\C/C=C\C/C=C\CCCC(=O)OCCc1ccsc1`
< 5.30

What does the record list as pKi for `CCCCC/C=C\C/C=C\C/C=C\C/C=C\CCCC(=O)OCc1ccco1` ?
< 5.30

Tell me the measured pKi of `CCCCC/C=C\C/C=C\C/C=C\C/C=C\CCCC(=O)N(C)Cc1ccoc1` , please.
< 6.00

GET /values?readout=pKi&item= `CCCCC/C=C\C/C=C\C/C=C\C/C=C\CCCC(=O)O[C@@H](C)c1ccco1`
< 5.30

So what's the measured pKi for this one? `CCCCC/C=C\C/C=C\C/C=C\C/C=C\CCCC(=O)NCc1cccs1`
< 5.00

Item under review: CCCCC/C=C\C/C=C\C/C=C\C/C=C\CCCC(=O)OCC1CCCO1 (stereo unspecified) . Reported pKi?
< 5.30

Could you share which pKi value was measured for CCCCC/C=C\C/C=C\C/C=C\C/C=C\CCCC(=O)NC(C)c1ccco1 (stereo unspecified) ?
< 5.30

###

I'd be grateful if you could share measured pIC50 for these entries.
Molecular target: Fatty-acid amide hydrolase 1 (Rattus norvegicus, UniProt P97612)
Test: Inhibition of fatty acid amide hydrolase (FAAH) was determined using rat brain homogenates as the enzyme source and [3H]anandamide as substrate
Type: tissue-based
Just so you know, pIC50 here is -log10 of the concentration in molar units; reply with that number alone.

Recorded pIC50 for `CCCCC/C=C\C/C=C\C/C=C\C/C=C\CCCC(=O)OCc1ccoc1` , please?
3.99

Give the measured pIC50 of CCCCC/C=C\C/C=C\C/C=C\C/C=C\CCCC(=O)NC(C)c1ccco1 (centres undefined) .
4.44

For the molecule shown here, CCCCC/C=C\C/C=C\C/C=C\C/C=C\CCCC(=O)OCC1CCOC1 (centres undefined) , give the reported pIC50.
3.95

What value of pIC50 has been reported for the following molecule? `CCCCC/C=C\C/C=C\C/C=C\C/C=C\CCCC(=O)NCc1ccoc1`
4.52

###

Hi there, I'd appreciate the recorded Ki for every entry that follows.

Query for Transient receptor potential cation channel subfamily V member 1 (Rattus norvegicus): what Ki does the record show for `CCCCC/C=C\C/C=C\C/C=C\C/C=C\CCCC(=O)NCc1ccsc1` ?
> 5 µM

Give recorded Ki with Transient receptor potential cation channel subfamily V member 1 (Rattus norvegicus) for the following molecule: `CCCCC/C=C\C/C=C\C/C=C\C/C=C\CCCC(=O)NCCc1ccsc1`
Sequence (O35433 whole entry): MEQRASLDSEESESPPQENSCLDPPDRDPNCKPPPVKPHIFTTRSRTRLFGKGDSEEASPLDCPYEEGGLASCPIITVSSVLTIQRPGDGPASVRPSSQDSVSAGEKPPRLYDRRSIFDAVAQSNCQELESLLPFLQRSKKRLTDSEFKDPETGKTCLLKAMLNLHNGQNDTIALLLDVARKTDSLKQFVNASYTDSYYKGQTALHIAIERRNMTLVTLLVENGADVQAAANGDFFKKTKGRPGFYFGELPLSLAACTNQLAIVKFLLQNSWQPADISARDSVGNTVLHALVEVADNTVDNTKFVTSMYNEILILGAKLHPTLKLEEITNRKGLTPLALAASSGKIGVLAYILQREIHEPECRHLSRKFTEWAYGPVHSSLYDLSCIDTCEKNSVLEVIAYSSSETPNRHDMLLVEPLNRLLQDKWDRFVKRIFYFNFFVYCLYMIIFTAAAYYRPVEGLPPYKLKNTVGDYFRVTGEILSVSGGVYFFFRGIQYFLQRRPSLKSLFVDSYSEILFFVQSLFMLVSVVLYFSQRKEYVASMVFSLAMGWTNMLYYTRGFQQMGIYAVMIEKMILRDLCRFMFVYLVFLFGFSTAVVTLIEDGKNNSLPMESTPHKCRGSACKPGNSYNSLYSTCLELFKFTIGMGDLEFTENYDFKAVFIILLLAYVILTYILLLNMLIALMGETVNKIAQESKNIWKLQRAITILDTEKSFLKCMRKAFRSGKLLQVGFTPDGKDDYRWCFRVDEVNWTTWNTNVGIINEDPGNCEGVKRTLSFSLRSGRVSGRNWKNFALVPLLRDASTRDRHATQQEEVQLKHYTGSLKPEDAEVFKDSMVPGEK
< 5 µM

Return Ki measured with Transient receptor potential cation channel subfamily V member 1 (Rattus norvegicus) given this molecule: `CCCCC/C=C\C/C=C\C/C=C\C/C=C\CCCCNCc1ccoc1`
> 5 µM

Request - read-out Ki | tested on Transient receptor potential cation channel subfamily V member 1 (Rattus norvegicus) | molecule `CCCCC/C=C\C/C=C\C/C=C\C/C=C\CCCC(=O)NCCc1cccs1`
> 5 µM

What reported Ki corresponds to `CCCCC/C=C\C/C=C\C/C=C\C/C=C\CCCC(=O)OCCc1cccs1` on Transient receptor potential cation channel subfamily V member 1 (Rattus norvegicus)?
> 5 µM

Form field: Ki recorded for CCCCC/C=C\C/C=C\C/C=C\C/C=C\CCCC(=O)NC(C)c1ccco1 (stereo not given) with Transient receptor potential cation channel subfamily V member 1 (Rattus norvegicus) (enter value)
> 5 µM

Transient receptor potential cation channel subfamily V member 1 (Rattus norvegicus) / Ki / CCCCC/C=C\C/C=C\C/C=C\C/C=C\CCCC(=O)NC(C)Cc1ccsc1 (stereo not given) : value?
< 5 µM

API: value(readout= Ki, system= Transient receptor potential cation channel subfamily V member 1 (Rattus norvegicus), query= CCCCC/C=C\C/C=C\C/C=C\C/C=C\CCCC(=O)OC(C)c1ccco1 (stereo not given) )
> 5 µM

Checklist item: Ki tested on Transient receptor potential cation channel subfamily V member 1 (Rattus norvegicus), entry `CCCCC/C=C\C/C=C\C/C=C\C/C=C\CCCC(=O)NCCc1ccco1` , value?
> 5 µM

Kindly state the measured Ki obtained for `CCCCC/C=C\C/C=C\C/C=C\C/C=C\CCCC(=O)O[C@H](C)c1ccco1` with Transient receptor potential cation channel subfamily V member 1 (Rattus norvegicus).
> 5 µM

###

Target: Fatty-acid amide hydrolase 1 (Rattus norvegicus) (UniProt P97612)
Test: Maximum Inhibition of fatty acid amide hydrolase (FAAH) was determined using rat brain homogenates at 100 uM
readout_kind: Max inhibition (%)
API: value field is a number in %; no unit string.

State its Max inhibition on Fatty-acid amide hydrolase 1 (Rattus norvegicus) (UniProt P97612): CCCCC/C=C\C/C=C\C/C=C\C/C=C\CCCC(=O)OC(C)c1ccco1 (centres undefined)
45

Provide the documented Max inhibition with Fatty-acid amide hydrolase 1 (Rattus norvegicus) (UniProt P97612) as the system for `CCCCC/C=C\C/C=C\C/C=C\C/C=C\CCCC(=O)O[C@H](C)c1ccco1`
19

# returns recorded Max inhibition (system: Fatty-acid amide hydrolase 1 (Rattus norvegicus) (UniProt P97612)) for `CCCCC/C=C\C/C=C\C/C=C\C/C=C\CCCC(=O)NCCc1ccco1`
38

Short answer please: Max inhibition, Fatty-acid amide hydrolase 1 (Rattus norvegicus) (UniProt P97612), entry `CCCCC/C=C\C/C=C\C/C=C\C/C=C\CCCC(=O)O[C@@H](C)c1ccco1`
24

###

Assignment: determine reported Max inhibition for the given compounds.
Molecular target: Fatty-acid amide hydrolase 1 (Rattus norvegicus) (UniProt P97612)
Sequence (whole entry): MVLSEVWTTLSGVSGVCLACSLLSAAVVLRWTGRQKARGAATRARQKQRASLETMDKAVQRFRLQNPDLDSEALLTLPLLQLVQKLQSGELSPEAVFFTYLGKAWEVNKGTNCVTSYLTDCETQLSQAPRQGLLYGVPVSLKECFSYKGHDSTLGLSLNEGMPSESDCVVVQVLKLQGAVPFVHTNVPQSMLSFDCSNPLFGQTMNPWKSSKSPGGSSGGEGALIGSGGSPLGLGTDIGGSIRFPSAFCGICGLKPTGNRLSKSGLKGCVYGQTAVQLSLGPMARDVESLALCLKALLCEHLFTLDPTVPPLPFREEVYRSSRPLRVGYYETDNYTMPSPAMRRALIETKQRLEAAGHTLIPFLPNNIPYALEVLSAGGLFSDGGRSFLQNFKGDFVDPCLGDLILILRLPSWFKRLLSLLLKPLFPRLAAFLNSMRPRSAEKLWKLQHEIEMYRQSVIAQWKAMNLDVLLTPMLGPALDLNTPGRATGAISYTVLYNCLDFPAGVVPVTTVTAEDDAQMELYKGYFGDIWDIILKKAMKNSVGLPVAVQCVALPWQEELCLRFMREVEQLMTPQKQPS
Test: Inhibition of fatty acid amide hydrolase (FAAH) in rat brain homogenates
Type: tissue-based
Quick note: give the figure in %, leave out the unit.

What does the record list as Max inhibition for `CCCCC/C=C\C/C=C\C/C=C\C/C=C\CCCC(=O)NCc1ccco1` ?
100

For `CCCCC/C=C\C/C=C\C/C=C\C/C=C\CCCC(=O)NCCc1cccs1` , what is its reported Max inhibition?
100

Given the compound `CCCCC/C=C\C/C=C\C/C=C\C/C=C\CCCC(=O)SCc1ccco1` , what is its reported Max inhibition?
36

Can you share its Max inhibition? I mean this compound: CCCCC/C=C\C/C=C\C/C=C\C/C=C\CCCC(=O)NC(C)Cc1ccsc1 (stereo not given)
37

Item `CCCCC/C=C\C/C=C\C/C=C\C/C=C\CCCCNCc1ccoc1` has what recorded Max inhibition?
57

What measured Max inhibition goes with `CCCCC/C=C\C/C=C\C/C=C\C/C=C\CCCC(=O)OCc1cccs1` ?
80

Could you tell me which Max inhibition is on file for CCCCC/C=C\C/C=C\C/C=C\C/C=C\CCCC(=O)NCC1CCCO1 (stereo not given) ?
47

Fill in: Max inhibition of `CCCCC/C=C\C/C=C\C/C=C\C/C=C\CCCC(=O)OCc1ccsc1` is ___
100

Consider the compound shown here: `CCCCC/C=C\C/C=C\C/C=C\C/C=C\CCCC(=O)OCc1ccoc1` What is its recorded Max inhibition?
100

I have this compound here, `CCCCC/C=C\C/C=C\C/C=C\C/C=C\CCCC(=O)NCc1ccoc1` , and I need its recorded Max inhibition.
100

Which Max inhibition value is on record for CCCCC/C=C\C/C=C\C/C=C\C/C=C\CCCC(=O)NC(C)c1ccco1 (stereo not given) ?
75

Fill in: Max inhibition of `CCCCC/C=C\C/C=C\C/C=C\C/C=C\CCCC(=O)NCc1cccs1` is ___
100

Returns the measured Max inhibition for the input compound. Input: CCCCC/C=C\C/C=C\C/C=C\C/C=C\CCCC(=O)OCC1CCOC1 (stereo not given)
100

What Max inhibition value was documented for this compound, `CCCCC/C=C\C/C=C\C/C=C\C/C=C\CCCC(=O)OCCc1cccs1` ?
68

Consider the compound shown here: `CCCCC/C=C\C/C=C\C/C=C\C/C=C\CCCC(=O)OCc1ccco1` What is its recorded Max inhibition?
100

Recorded values, source ChEMBL document CHEMBL1136766.
